targetOrSystem: YAP-TEAD interaction (Homo sapiens, UniProt P28347)
Construct: expressed in transfected cells; host or cells: HEK293 GripTite 293 MSR (Invitrogen R795-07)
Sequence (P28347 whole entry): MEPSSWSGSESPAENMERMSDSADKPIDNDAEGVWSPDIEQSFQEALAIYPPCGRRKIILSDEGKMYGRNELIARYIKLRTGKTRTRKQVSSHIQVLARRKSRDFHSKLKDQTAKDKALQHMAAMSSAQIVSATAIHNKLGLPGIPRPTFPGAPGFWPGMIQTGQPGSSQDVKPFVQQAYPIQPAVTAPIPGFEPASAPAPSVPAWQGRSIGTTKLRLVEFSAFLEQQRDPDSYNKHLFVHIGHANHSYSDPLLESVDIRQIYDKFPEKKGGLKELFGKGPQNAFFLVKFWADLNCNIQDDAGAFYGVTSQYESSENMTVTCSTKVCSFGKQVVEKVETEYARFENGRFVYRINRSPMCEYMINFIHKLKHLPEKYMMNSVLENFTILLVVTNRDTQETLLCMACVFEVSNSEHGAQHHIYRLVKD
method: Cell-based TEAD-GAL4 transactivation assay (luciferase reporter)
settings: HEK293, 24 h, HEK293 cells transfected with TEAD1-Gal4, YAP mutant (S127A, S397A) and luciferase reporter, compounds 0.1 μM to 30 μM, read-out: TEAD-GAL4 Transactivation activity Max Act
Measured Emax accompanies every entry in the list below.
measuredProperty: Emax (%)

1) COc1cccc2c(N(CC(C)C)/N=C/c3ccc4c(c3)COB4O)ncnc12 ... 86
2) CCN(/N=C/c1ccc2c(c1)COB2O)C1=NS(=O)(=O)c2ccccc21 ... 83
3) COc1cc(/C=N/N(C)c2cc(C)cnn2)ccc1B(O)O ... 71
4) CCN(/N=C/c1ccc2c(c1)COB2O)c1ncnc2c(C)csc12 ... 81
5) COCC1CC(n2c(=O)[nH]c3c(N(C)/N=C/c4ccc5c(c4)COB5O)ncnc32)C1 (stereo not shown) ... 82
6) CC(C)CN(/N=C/c1ccc(B(O)O)cc1)C1=NS(=O)(=O)c2ccccc21 ... 74
7) CCN(/N=C/c1ccc2c(c1)COB2O)c1ncnc2cc(F)ccc12 ... 85
8) COc1ccc2c(c1)C(N(C)/N=C/c1ccc3c(c1)COB3O)=NS2(=O)=O ... 92
9) CCN(/N=C/c1ccc2c(c1)COB2O)c1ncnc2cn[nH]c12 ... 75
10) CCN(/N=C/c1ccc2c(c1)COB2O)c1ncnc2c1cnn2C ... 83

The reported measurements were obtained from patent US11999758B2.
